# procedure-details: recombinant UMI read abundance after kanamycin selection (control-corrected) (log10(CPM+1)); higher = more efficient recombination; extreme values may be limits of the assay; sequences stand for … in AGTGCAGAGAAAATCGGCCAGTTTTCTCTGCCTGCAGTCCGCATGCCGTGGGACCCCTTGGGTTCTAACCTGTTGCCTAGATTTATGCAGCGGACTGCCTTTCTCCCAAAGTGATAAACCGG…AGGTTGGTTTCACT; site = the 11-nt donor;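 further: IS621 bridge recombinase in Escherichia coli cells against a fixed T5 target plasmid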
value-type: recombinant UMI read abundance (log10)
When you answer, write just the number.

Sample GTGCAGGCATGGACCGGTTTTCCCGGTAATCCGTATTTGGT (site GTGCATGCTAC) — what was its recombinant UMI read abundance (log10)?
0.279

So what does the record say about recombinant UMI read abundance (log10) for ACCCAATCATGGACCGGTTTTCCCGGTAATCCGTATTTGGA (site ACCCAATCTTC) ?
2.04

Consider the sequence shown here: GTGTCCCCATGGACCGGTTTTCCCGGTAATCCGTATTTGGA (site GTGTCCCCTTC) What is its recorded recombinant UMI read abundance (log10)?
0.0113

Need recombinant UMI read abundance (log10), item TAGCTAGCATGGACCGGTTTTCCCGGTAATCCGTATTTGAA (site TAGCTAGCTAT)
0.502

So what does the record say about recombinant UMI read abundance (log10) for GCTACTGCATGGACCGGTTTTCCCGGTAATCCGTATTTGGC (site GCTACTGCTGA) ?
0.76

Requested read-out: recombinant UMI read abundance (log10). Entry: ACTAGAGCATGGACCGGTTTTCCCGGTAATCCGTATTTGGT (site ACTAGCGCTAC)
0.398

Entry CACTTGGCATGGACCGGTTTTCCCGGTAATCCGTATTTGGC (site CACTTGGCTTC) : reported recombinant UMI read abundance (log10) = ?
0.166

Fill in the blank: the reported recombinant UMI read abundance (log10) of CCGAAACCATGGACCGGTTTTCCCGGTAATCCGTATTTGTT (site CCGAAACCTAA) is ____.
0

Fill blank: measured recombinant UMI read abundance (log10) of the sequence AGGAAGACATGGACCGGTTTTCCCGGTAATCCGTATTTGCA (site ACGAAGACTCG) is ____.
0.0101

What value of recombinant UMI read abundance (log10) has been reported for the following sequence? ATAATCGCATGGACCGGTTTTCCCGGTAATCCGTATTTGGG (site ATAATCGCTCC)
0.324

Given the sequence GTCCACCCATGGACCGGTTTTCCCGGTAATCCGTATTTGTT (site GCCCACCCTAA) , what is its reported recombinant UMI read abundance (log10)?
0.0129

Which recombinant UMI read abundance (log10) value belongs to CCACATCCATGGACCGGTTTTCCCGGTAATCCGTATTTGAC (site GCACATCCTGT) ?
0

Recorded recombinant UMI read abundance (log10) for AGTACGTCATGGACCGGTTTTCCCGGTAATCCGTATTTGTT (site AGTACGTCTAA) , please?
0.258

GET /values?readout=recombinant UMI read abundance (log10)&item= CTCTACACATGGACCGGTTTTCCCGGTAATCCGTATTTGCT (site CTCTACACTCG)
0.238

Which recombinant UMI read abundance (log10) value is on record for CACGGCCCATGGACCGGTTTTCCCGGTAATCCGTATTTGTA (site CACGGCCCTAA) ?
0.00609

Using the record for GACGGCCCATGGACCGGTTTTCCCGGTAATCCGTATTTGTT (site GACGGCCCTAA) , report its recombinant UMI read abundance (log10).
0

Requested read-out: recombinant UMI read abundance (log10). Entry: ACACTTCCATGGACCGGTTTTCCCGGTAATCCGTATTTGAC (site ACACCTCCTGT)
1.29

Recorded recombinant UMI read abundance (log10) for CTTTGGGCATGGACCGGTTTTCCCGGTAATCCGTATTTGTC (site CTTTGGGCTGA) , please?
0
